Tested on: human pulmonary carcinoma (PC6)
Assay: Inhibition of proliferation of cancer cells in culture (Test Example 1)
Assay type: cell-based
Conditions: 72 hours cultivation, read-out: Concentration of test compound to inhibit the proliferation of cancer cells by 50 %
Checkbox rule: IC50 lower than 3 µg/mL = T; IC50 not lower than 3 µg/mL = F.

Please review the entries below; each comes with its answer.
{"molecule": "C[C@@H]1O[C@H](Oc2c(O)c3c(c4cccnc24)C(=O)c2ccccc2C3=O)[C@@H](F)[C@H](O)[C@@H]1O", "category.label": "T"}
{"molecule": "CO[C@H]1[C@H](Oc2c(O)c3c(c4cccnc24)C(=O)c2ccccc2C3=O)O[C@@H](C)[C@@H](O)[C@H]1O", "category.label": "F"}
{"molecule": "C[C@@H]1O[C@@H](Oc2c(O)c3c(c4cccnc24)C(=O)c2ccccc2C3=O)[C@H](F)[C@H](O)[C@@H]1O", "category.label": "F"}
{"molecule": "COc1cccc2c1C(=O)c1c(O)c3c(c(O)c1C2=O)C[C@@](O)(C(=O)CO)C[C@@H]3O[C@H]1C[C@H](N)[C@H](O)[C@H](C)O1 [Adriamycin, reference compound]", "category.label": "T"}

Switching to the query record.
stdin: IC50 strictly < 3 µg/mL for this molecule? C[C@@H]1O[C@@H](Oc2c(O)c3c(c4cccnc24)C(=O)c2ccccc2C3=O)[C@@H](F)[C@H](O)[C@@H]1O
stdout: T

* * *

System: human pudendal squamous cell carcinoma (A431)
Experiment: Inhibition of proliferation of cancer cells in culture (Test Example 1)
Format: cell-based
Conditions: A-431, 72 hours cultivation, read-out: Concentration of test compound to inhibit the proliferation of cancer cells by 50 %
endpoint: IC50 (µg/mL)
Respond numerically; units are µg/mL and should not be typed.

{"compound": "C[C@@H]1O[C@@H](Oc2c(O)c3c(c4cccnc24)C(=O)c2ccccc2C3=O)[C@H](F)[C@H](O)[C@H]1N", "IC50, µg/mL": 2.25}

stdin: Entry under review: C[C@@H]1O[C@@H](Oc2c(O)c3c(c4cccnc24)C(=O)c2ccccc2C3=O)[C@@H](F)[C@H](O)[C@@H]1O . Reported IC50?
stdout: 1.26

stdin: Entry under review: C[C@@H]1O[C@H](Oc2c(O)c3c(c4cccnc24)C(=O)c2ccccc2C3=O)[C@@H](F)[C@H](O)[C@@H]1O . Reported IC50?
stdout: 1.11

stdin: Entry under review: COc1cccc2c1C(=O)c1c(O)c3c(c(O)c1C2=O)C[C@@](O)(C(=O)CO)C[C@@H]3O[C@H]1C[C@H](N)[C@H](O)[C@H](C)O1 [Adriamycin, reference compound] . Reported IC50?
stdout: 1.33

stdin: Entry under review: C[C@@H]1O[C@@H](Oc2c(O)c3c(c4cccnc24)C(=O)c2ccccc2C3=O)[C@H](F)[C@H](O)[C@@H]1O . Reported IC50?
stdout: 3.36

stdin: Entry under review: CO[C@H]1[C@H](Oc2c(O)c3c(c4cccnc24)C(=O)c2ccccc2C3=O)O[C@@H](C)[C@@H](O)[C@H]1O . Reported IC50?
stdout: 3.33

* * *

Listing of recorded anticancer activities against DLD-1, times higher than those of adriamycin by entry.
System: human colon cancer (DLD-1)
Experiment: Inhibition of proliferation of cancer cells in culture (Test Examples 1 and 3)
Assay type: cell-based
Settings: Test Example 1, relative to adriamycin
Respond numerically; units are times and should not be typed.

The examples below pair each entry with its known result.
{"structure.smiles": "C[C@@H]1O[C@@H](Oc2c(O)c3c(c4cccnc24)C(=O)c2ccccc2C3=O)[C@H](F)[C@H](O)[C@H]1N", "assay.target": "human colon cancer (DLD-1)", "result.number": 11}
{"structure.smiles": "CO[C@H]1[C@H](Oc2c(O)c3c(c4cccnc24)C(=O)c2ccccc2C3=O)O[C@@H](C)[C@@H](O)[C@H]1O", "assay.target": "human colon cancer (DLD-1)", "result.number": 1.7}
{"structure.smiles": "C[C@@H]1O[C@@H](Oc2c(O)c3c(c4cccnc24)C(=O)c2ccccc2C3=O)[C@@H](F)[C@H](O)[C@@H]1O", "assay.target": "human colon cancer (DLD-1)", "result.number": 16}

Moving on to another compound below.
stdin: Entry under review: C[C@@H]1O[C@@H](Oc2c(O)c3c(c4cccnc24)C(=O)c2ccccc2C3=O)[C@H](F)[C@H](O)[C@@H]1O . Reported anticancer activities against DLD-1, times higher than those of adriamycin?
stdout: 16

* * *

System: mouse B-cell lymphoma (LB32T)
Test: Inhibition of proliferation of cancer cells in culture (Test Examples 1 and 3)
Assay type: cell-based
Conditions: 72 hours cultivation, Test Example 1, read-out: Concentration of test compound to inhibit the proliferation of cancer cells by 50 %, IC50
Experimental: A culture medium for cancer cells was put into test tubes. To the culture medium in each tube, there was transplanted each of such various mouse cancer cells or human cancer cells as shown in Table 1 below. The cells so transplanted were cultivated under the conditions at 37°C in an air atmosphere containing 5 % CO2. To the medium containing the cancer cells so cultivated, there was added said Compounds A, B, D, E or F of this invention at different concentrations, as the test compound. […]
endpoint: IC50 (µg/mL)
Respond numerically; units are µg/mL and should not be typed.

{"compound": "C[C@@H]1O[C@@H](Oc2c(O)c3c(c4cccnc24)C(=O)c2ccccc2C3=O)[C@H](F)[C@H](O)[C@@H]1O [Compound A]", "endpoint": "IC50", "result.number": 0.43}
{"compound": "C[C@@H]1O[C@H](Oc2c(O)c3c(c4cccnc24)C(=O)c2ccccc2C3=O)[C@@H](F)[C@H](O)[C@@H]1O [Compound E]", "endpoint": "IC50", "result.number": 0.26}
{"compound": "COc1cccc2c1C(=O)c1c(O)c3c(c(O)c1C2=O)C[C@@](O)(C(=O)CO)C[C@@H]3O[C@H]1C[C@H](N)[C@H](O)[C@H](C)O1 [Adriamycin, reference compound]", "endpoint": "IC50", "result.number": 0.03}

stdin: Can you look up IC50 on mouse B-cell lymphoma (LB32T) for C[C@@H]1O[C@@H](Oc2c(O)c3c(c4cccnc24)C(=O)c2ccccc2C3=O)[C@@H](F)[C@H](O)[C@@H]1O [Compound D] ?
stdout: 0.3

* * *

Test system: human prostatic cancer (PC3)
Test: Inhibition of proliferation of cancer cells in culture (Test Examples 1 and 3)
Format: cell-based
Settings: Homo sapiens, Test Example 3, Compounds N to T used as trifluoroacetate, read-out: IC50
Protocol: A culture medium for cancer cells was put into test tubes. To the culture medium in each tube, there was transplanted each of such various mouse cancer cells or human cancer cells as shown in Table 1 below. The cells so transplanted were cultivated under the conditions at 37°C in an air atmosphere containing 5 % CO2. To the medium containing the cancer cells so cultivated, there was added said Compounds A, B, D, E or F of this invention at different concentrations, as the test compound. […]
Checkbox rule: IC50 lower than 0.6 µg/mL = True; IC50 not lower than 0.6 µg/mL = False.

{"molecule": "C[C@@H]1O[C@@H](Oc2c(O)c3c(c4cccnc24)C(=O)c2ccccc2C3=O)[C@H](F)[C@H](OC(=O)CCN)[C@@H]1OC(=O)CCN", "assay.target": "human prostatic cancer (PC3)", "category.label": "True"}
{"molecule": "C[C@@H]1O[C@H](Oc2c(O)c3c(c4cccnc24)C(=O)c2ccccc2C3=O)[C@@H](F)[C@H](OC(=O)CCN)[C@@H]1O", "assay.target": "human prostatic cancer (PC3)", "category.label": "True"}

stdin: IC50 strictly < 0.6 µg/mL for this molecule? C[C@@H]1O[C@H](Oc2c(O)c3c(c4cccnc24)C(=O)c2ccccc2C3=O)[C@@H](F)[C@H](OC(=O)CCN)[C@@H]1OC(=O)CCN
stdout: True

stdin: IC50 strictly < 0.6 µg/mL for this molecule? C[C@@H]1O[C@H](Oc2c(OC(=O)CCN)c3c(c4cccnc24)C(=O)c2ccccc2C3=O)[C@@H](F)[C@H](OC(=O)CCN)[C@@H]1OC(=O)CCN
stdout: False

stdin: IC50 strictly < 0.6 µg/mL for this molecule? C[C@@H]1O[C@@H](Oc2c(O)c3c(c4cccnc24)C(=O)c2ccccc2C3=O)[C@@H](F)[C@H](OC(=O)CCN)[C@@H]1OC(=O)CCN
stdout: False

stdin: IC50 strictly < 0.6 µg/mL for this molecule? COc1cccc2c1C(=O)c1c(O)c3c(c(O)c1C2=O)C[C@@](O)(C(=O)CO)C[C@@H]3O[C@H]1C[C@H](N)[C@H](O)[C@H](C)O1 [Adriamycin, reference compound]
stdout: False

* * *

System: human colon cancer (DLD-1)
Experiment: Inhibition of proliferation of cancer cells in culture (Test Examples 1 and 3)
Format: cell-based
Settings: Homo sapiens, Test Example 3, Compounds N to T used as trifluoroacetate, read-out: IC50
endpoint: IC50 (mg/L)
Respond numerically; units are mg/L and should not be typed.

{"molecule": "COc1cccc2c1C(=O)c1c(O)c3c(c(O)c1C2=O)C[C@@](O)(C(=O)CO)C[C@@H]3O[C@H]1C[C@H](N)[C@H](O)[C@H](C)O1 [Adriamycin, reference compound]", "result.unit": "mg/L", "IC50": 3.4}
{"molecule": "C[C@@H]1O[C@@H](Oc2c(O)c3c(c4cccnc24)C(=O)c2ccccc2C3=O)[C@@H](F)[C@H](OC(=O)CCN)[C@@H]1OC(=O)CCN", "result.unit": "mg/L", "IC50": 0.71}
{"molecule": "C[C@@H]1O[C@H](Oc2c(OC(=O)CCN)c3c(c4cccnc24)C(=O)c2ccccc2C3=O)[C@@H](F)[C@H](OC(=O)CCN)[C@@H]1OC(=O)CCN", "result.unit": "mg/L", "IC50": 0.45}
{"molecule": "C[C@@H]1O[C@@H](Oc2c(O)c3c(c4cccnc24)C(=O)c2ccccc2C3=O)[C@H](F)[C@H](OC(=O)CCN)[C@@H]1OC(=O)CCN", "result.unit": "mg/L", "IC50": 0.46}
{"molecule": "C[C@@H]1O[C@H](Oc2c(O)c3c(c4cccnc24)C(=O)c2ccccc2C3=O)[C@@H](F)[C@H](OC(=O)CCN)[C@@H]1O", "result.unit": "mg/L", "IC50": 0.18}

Moving on to another molecule below.
stdin: Entry under review: C[C@@H]1O[C@H](Oc2c(O)c3c(c4cccnc24)C(=O)c2ccccc2C3=O)[C@@H](F)[C@H](OC(=O)CCN)[C@@H]1OC(=O)CCN . Reported IC50?
stdout: 0.42
